Data provenance is ChEMBL document CHEMBL2157869.

Assay: Cmax in lung cancer patient epithelial lining fluid at 2 gram, po qd
Format: ADME, organism-based
Set-up: route oral
Details: human
endpoint.label: Cmax (ng/mL)
Field: numeric (ng/mL). Do not append units.

I am curious: what Cmax value has been reported for CC[C@H]1OC(=O)[C@H](C)[C@@H](O[C@H]2C[C@@](C)(OC)[C@@H](O)[C@H](C)O2)[C@H](C)[C@@H](O[C@@H]2O[C@H](C)C[C@H](N(C)C)[C@H]2O)[C@](C)(O)C[C@@H](C)CN(C)[C@H](C)[C@@H](O)[C@]1(C)O ?
3200

----------
# inhibition at 50 µM per entry
Assay: Antiinflammatory activity in mouse splenocytes assessed as inhibition of LPS-induced IL-6 production at 50 uM preincubated for 2 hrs prior to LPS challenge by sandwich ELISA
Type: functional
Details: Splenocyte
Please reply with the bare figure in % and do not write the unit itself.

CC[C@H]1OC(=O)[C@H](C)[C@@H](O[C@H]2C[C@@](C)(OC)[C@@H](O)[C@H](C)O2)[C@H](C)[C@@H](O[C@@H]2O[C@H](C)C[C@H]3[C@H]2O/C(=N\C(C)C)N3C)[C@](C)(OC)C[C@@H](C)NC(=O)[C@H](C)[C@@H](O)[C@]1(C)O ... 67

Consider the compound shown here: CC[C@H]1OC(=O)[C@H](C)[C@@H](O[C@H]2C[C@@](C)(OC)[C@@H](O)[C@H](C)O2)[C@H](C)[C@@H](O[C@@H]2O[C@H](C)C[C@H]3[C@H]2O/C(=N\C(C)(C)C)N3C)[C@](C)(OC)C[C@@H](C)C(=O)N[C@H](C)[C@@H](O)[C@]1(C)O What is its recorded inhibition at 50 µM?
86
